Literature roundup of Epidermal growth factor receptor (Homo sapiens, UniProt P00533) data, read-out IC50.
Number in µM, nothing else.

IC50 for Epidermal growth factor receptor (Homo sapiens, UniProt P00533) with input "OCCOCn1ccc2ncnc(Nc3cnc(Oc4cccc(C(F)(F)F)c4)c(Cl)c3)c21" equals 0.429

Value (IC50, Epidermal growth factor receptor (Homo sapiens, UniProt P00533)) for record "CCC1=C(CC(=O)O)c2cc(F)ccc2/C1=C\c1ccoc1" = 0.9

Form: item OC(COc1ncnc2ccccc12)CN1CCN(c2cccc(Cl)c2)CC1 (stereo not drawn) ; test system Epidermal growth factor receptor (Homo sapiens, UniProt P00533); IC50: 0.413

Fill in: Epidermal growth factor receptor (Homo sapiens, UniProt P00533) IC50 for OC(COc1ncnc2ccccc12)CN1CCN(c2ccc(Cl)c(Cl)c2)CC1 (stereo not drawn) = 0.344

Case "CN1CCOCCN(c2ccc(F)c(Cl)c2)c2cc3c(n[nH]c3cn2)/C=C/c2cn(C)nc2C1=O" , Epidermal growth factor receptor (Homo sapiens, UniProt P00533), IC50 recorded as 0.0335

Tested on Epidermal growth factor receptor (Homo sapiens, UniProt P00533), the item "CN(C)CCCNC(=O)c1ccc2c(c1)/C=C/c1n[nH]c3cnc(cc13)-c1cnn(C)c1COCCO2" showed IC50 equal to 0.0972

---

Literature-derived IC50 for Epidermal growth factor receptor (Homo sapiens, UniProt P00533) follows.
Reply numerically in nM, unit not repeated.

Item: "C[C@H](N)C#Cc1cc2ncnc(Nc3ccc(OCc4cccc(F)c4)c(Cl)c3)c2s1" | System: Epidermal growth factor receptor (Homo sapiens, UniProt P00533) | IC50: 64

Tested system Epidermal growth factor receptor (Homo sapiens, UniProt P00533); IC50 recorded for COc1ccc(N2CCN(CC(O)COc3ncnc4ccccc34)CC2)cc1 (stereo not drawn) was 276

Record "CN1CCC(CNC(=O)c2ccc3c(c2)/C=C/c2n[nH]c4cnc(cc24)-c2cnn(C)c2COCCO3)CC1" ; system Epidermal growth factor receptor (Homo sapiens, UniProt P00533); IC50 = 101

# value of IC50, Epidermal growth factor receptor (Homo sapiens, UniProt P00533), item "COC(=O)c1ccc2c(c1)/C=C/c1n[nH]c3cnc(cc13)-c1cnn(C)c1OCCCO2" = 159

Record OC(COc1ncnc2ccccc12)CN1CCN(c2cccc(Cl)c2Cl)CC1 (stereo not drawn) has Epidermal growth factor receptor (Homo sapiens, UniProt P00533) IC50 equal to 409

// molecule Cc1nccn1CC(O)COc1ncnc2ccccc12 (stereo not drawn) , assay Epidermal growth factor receptor (Homo sapiens, UniProt P00533), IC50 value: 444

Here "C=CC(=O)N1CCC[C@H](c2nn(-c3ccc(Oc4ccccc4)cc3)c3c(N)nccc23)C1" was tested on Epidermal growth factor receptor (Homo sapiens, UniProt P00533), and its IC50 came to 33.3

---

pIC50 for Epidermal growth factor receptor (Homo sapiens), merged from several publications.
pIC50: −log10 of the molar value.
Assign a class from recorded pIC50; defined classes: low class = under 6, middle class = from 6 up to 7, high class = 7 and over

Here's what some known entries look like.
- Cc1ccc(N2CCN(CC(O)COc3ncnc4ccccc34)CC2)c(C)c1 (stereo not given): middle class
- CN1CCC(NC(=O)c2ccc3c(c2)/C=C/c2n[nH]c4cnc(cc24)-c2cnn(C)c2COCCO3)CC1: high class
- CN(C)CCCNC(=O)c1ccc2c(c1)/C=C/c1n[nH]c3cnc(cc13)-c1cnn(C)c1OCCCO2: high class
- C=CCn1c(O)c(CC(=O)O)sc1=NN=c1scc(O)n1C: low class

Query: Just checking, what class would you give OC(COc1ncnc2ccccc12)CN1CCN(c2cccc(C(F)(F)F)c2)CC1 (stereo not given) here?
Result: middle class
